# Tested on: SEM cells
# TEST: cell viability relative to DMSO control; higher = less cytotoxic
# PROTOCOL CONDITIONS: HPLM + 10% dialyzed FBS; 48 h; 15.4 µM
cell viability for assorted molecules
Numbers only here, please. The scale is %.

A selection of reference data follows.
{"columns": ["MOLECULE", "RESULT VALUE"],
 "data": [
  ["CCc1cccc2c3c([nH]c12)C(CC)(CC(=O)O)OCC3 (stereo not given)", 47.2],
  ["OC(CCN1CCCCC1)(C2CC\\3CC2\\C=C3)C4=CC=CC=C4 (stereo not given)", 129],
  ["CN(c1nccc(=O)[nH]1)C1CCN(c2nc3ccccc3n2Cc2ccc(F)cc2)CC1", 91],
  ["FC(F)(F)C1=CC=C2C(SCCCCCO\\C3=C\\O\\C(CN4CCOCC4)=C/C3=O)=CC=NC2=C1", 106]
]}

Requested read-out: cell viability. Entry: CCC(=O)OC1CCC2C3CCC/4=C/C(=O)CC[C@@]4(C)C3CC[C@]12C (stereo not given in full)
121

Consider the molecule shown here: Cc1cc(-c2nnc3n2CCCCC3)c(C)n1-c1ccccc1 What is its recorded cell viability?
117

Item CCCCOc1ccc(CC(=O)NO)cc1 has what recorded cell viability?
76.4

Please look up its cell viability: O=C(O)CSCC(=O)NC1CCSC1=O (stereo not given)
89.5
